Tested on: A549/ATCC NSCLC
Assay: NCI-60 one-dose screen, 48 h (100 = growth as untreated, 0 = no growth, -100 = all killed)
Conditions: 10 µM unless noted
This is part of a sample that, as a whole, favours compounds with a hit. Of some 83,000 tested, about 20% had one in any assay.
Listed molecules paired with reported growth
Field: numeric (%). Do not append units.

molecule: COc1ccc(CCN2C(=O)/C(=C/c3ccc(C4Oc5ccccc5C5CC(c6cccc(OC)c6)=NN54)cc3)SC2=S)cc1 (centres undefined)
reportedEndpoint: growth
measuredValue: 103
//
molecule: COc1ccc(CCN2CCC(CN(C)Cc3cnn(-c4ccccc4)c3)CC2)cc1
reportedEndpoint: growth
measuredValue: 4.78

Request: So what does the record say about growth for S=C1CCCC(=S)N1 ?
Response: 98.3

Request: So what does the record say about growth for Nc1ccn(C2O[C@H](CO)[C@@H](O)[C@H]2O)c(=O)n1 (some centres undefined) ?
Response: 46.6

Request: So what does the record say about growth for COc1cc(/C=C2\CN(C)C/C(=C\c3cc(CN4CCCC4)c(O)c(OC)c3)C2=O)cc(CN2CCCC2)c1O ?
Response: 85.6

Request: So what does the record say about growth for COc1cc(NC(=O)CCSc2nc3ccccc3c(=O)n2Cc2ccccc2)cc(OC)c1OC ?
Response: 72.7

Request: So what does the record say about growth for O=C(/C=C/c1ccc(F)cc1)c1ccc(Nc2nc(NCCO)nc(Nc3ccc(Cl)cc3)n2)cc1 ?
Response: 51.1

Request: So what does the record say about growth for O=C(CSc1nc2ccccc2c(=O)n1-c1ccccc1)Nc1ccc(C(=O)/C=C/c2ccc(Cl)cc2)cc1 ?
Response: 97

Request: So what does the record say about growth for COC(=O)C1=C(C)NC(C)=C(C(=O)OC)C(N2C(=O)CCC2=O)C1 (centres undefined) ?
Response: 77.6

Request: So what does the record say about growth for COc1cc(CNC(=O)c2ccsc2Nc2ccnc(C(F)(F)F)c2)ccc1O ?
Response: 100

Request: So what does the record say about growth for CCOC(=O)C1=C(C)N=c2s/c(=C\c3cc(Cl)ccc3O)c(=O)n2C1c1ccc(OC)cc1 (centres undefined) ?
Response: 94.9

Request: So what does the record say about growth for Cc1cc2c(c(C)c1Cl)C(=O)/C(=C/c1cccc([N+](=O)[O-])c1)O2 ?
Response: 89.6

Request: So what does the record say about growth for CCC1=C[C@]2(C3CC(=O)N(c4ccccc4)C3=O)CC(C(C)(C)C)C[C@@H]2[C@@H]2C(=O)N(c3ccccc3)C(=O)[C@H]12 (some centres undefined) ?
Response: 68.7

Request: So what does the record say about growth for COC(=O)c1c2c(c(C)[n+]([O-])c1C)C(=O)C(NCc1ccc(F)c(F)c1)=CC2=O ?
Response: 8.81

Request: So what does the record say about growth for Cc1c(-c2noc(-c3ccc([N+](=O)[O-])cc3)n2)no[n+]1[O-] ?
Response: 111

Request: So what does the record say about growth for Cc1cc(Nc2ccc(OCc3ccccc3)cc2)nc2cc(O)ccc12 ?
Response: 66.6

Request: So what does the record say about growth for COc1ccc(Cn2cc(Cn3cc(C=C4C(=O)NC(=O)NC4=O)c4ccccc43)nn2)cc1 ?
Response: 112

Request: So what does the record say about growth for COc1cc(C2C3=C(COC3=O)N(CCO)c3cc4c(cc32)CCC4)cc(OC)c1O (centres undefined) ?
Response: 18.1
